Recorded values, source PubChem BioAssay.

- protocol-details: CREB reporter modulators without forskolin, primary screen, cell-based, PC12, CRE-LacZ reporter, unstimulated (AID 1145)
- conditions-used: no forskolin, luminescence, 4.5 h, higher = more signal, called active from +8 up or from −8 down
Recorded measurements of z-score, one per entry
metric: z-score

structure | reported-value
C#CCCCON=C1[C@H]2CCn3c(=O)n([C@@H](CC)c4ccccc4)c(=O)n3[C@H]2[C@H](O)[C@@H]2O[C@H]12 | 1.15
COC(=O)CC=C[C@@H](C)[C@@H](C=NOC[C@@H](O)COCc1ccco1)NS(=O)(=O)c1ccc(C)cc1 | -0.715
CCCNC(=O)OC[C@H]1O[C@H](CCON=C2C[C@@H](O)[C@@H](O)[C@@H]3[C@@H]4C(=O)N(CC)C(=O)[C@@H]4CC[C@@H]23)C=C[C@@H]1Oc1ccc(OC)cc1 | 0.68
CC(C)C(=O)N[C@H]1CCCN1C(=O)C=Cc1ccccc1 | -0.255
C[C@H]1C=CCC(=O)OC[C@H](C)C(=O)N2CCC[C@H]2C(=O)OC1 | -0.324
COc1ccc(COC(=O)NN=C2C[C@@H](O)[C@@H](O)[C@@H]3[C@@H]4C(=O)N(c5cccc(Oc6ccccc6)c5)C(=O)[C@@H]4CC[C@H]23)cc1 | -0.293
O=C1C=C[C@@H](O)[C@@H]2[C@@H]3C(=O)N(Cc4ccc5c(c4)OCO5)C(=O)[C@@H]3CC[C@@H]12 | -0.567
CCOC(=O)CCN1C(=O)[C@H]2[C@H]3[C@H](O)[C@H](O)CC(=NNC(=O)OCC)[C@H]3CC[C@H]2C1=O | -0.202

###

- protocol-details: HepG2 liver cancer cell viability effects, profiling panel, resazurin fluorescence, 24 h, PK04 Diversity Set (AID 1172); also: test concentration not given here
- conditions-used: higher = more signal
The label depends only on z-score: 1 if it is at least -0.2, -1 if it is smaller.

compound | category-label
CC#CCOCCC=C1c2ccccc2[C@@H](OC)[C@@H]1C | 1
O=C1CCCC=C1C(O)c1ccc([N+](=O)[O-])cc1 (configuration not stated) | -1
CC(C)(C)N1C(=O)[C@H]2[C@@H]3C(=CC[C@H]2C1=O)C(=O)[C@H]1O[C@H]1[C@H]3O | -1
CCOC(=O)[C@H](CC(C)C)NC(=O)CCC1CC(OC(=O)NCc2ccc3c(c2)OCO3)CC2(CCCC(COC(=O)NCCc3ccc(Cl)cc3)O2)O1 (some centres not stated) | 1
CC(CCC(=O)OC[C@H]1O[C@H](C#Cc2ccccc2)C=C[C@@H]1Oc1ccc(C)cc1)=NOC[C@@H](C)[C@H](OCc1ccccc1)C(C)C | 1
COC(=O)[C@H](C)NC(=O)CCC1CC(OC(=O)NCCc2ccc(F)cc2)CC2(CCCC(COC(=O)NCc3ccccc3)O2)O1 (some centres not stated) | 1
COc1ccc(COC(=O)NN=C2C[C@@H](O)[C@@H](O)[C@@H]3[C@@H]4C(=O)N(C[C@@H]5CCCO5)C(=O)[C@@H]4CC[C@H]23)cc1 | 1
CCN(CC)CC(O)CN1CCCCc2nc(C)c(C)cc21 (configuration not stated) | 1
COC(=O)[C@H](C)NC(=O)CCC1CC(OC(=O)NCc2cccc3ccccc23)CC2(CCCC(COC(=O)NCCc3ccccc3OC)O2)O1 (some centres not stated) | 1
COCOc1ccc(Br)cc1C(=O)C=Cc1ccc2c(c1)OCO2 | -1
O=C1CCCC=C1C(O)COCc1ccccc1 (configuration not stated) | 1
CCOC(=O)CCN1C(=O)[C@H]2[C@H]3[C@H](O)[C@H](O)CC(=NNC(=O)OCc4ccccc4)[C@H]3CC[C@H]2C1=O | 1
CC[C@@H](c1ccccc1)n1c(=O)n2n(c1=O)[C@H]1[C@H](O)[C@@H]3O[C@@H]3C(=NOCc3ccccc3)[C@H]1CC2 | -1
CCOC(=O)[C@H](CC(C)C)NC(=O)CCC1CC(OC(=O)NCCc2ccc(F)cc2)CC2(CCCC(COC(=O)NCCOC)O2)O1 (some centres not stated) | 1
CC(C)CN1CCc2nc(-c3ccccc3)c3c(c2C1)CO[C@@H](C)C3 | -1
CC(CCN1CCCc2nc(C)c(C)cc21)=NO[C@@H](C)c1cn([C@H](CO)Cc2ccccc2)nn1 | -1
O=C(NN=C1C[C@@H](O)[C@@H](O)[C@@H]2[C@@H]3C(=O)N(Cc4ccc5c(c4)OCO5)C(=O)[C@@H]3CC[C@@H]12)OCc1ccccc1 | 1

###

- protocol-details: PSAC antagonists in infected red cells, primary screen, cell-based, P. falciparum Indochina, OD700, 1 h (AID 1154)
- conditions-used: P. falciparum Indochina infected RBC osmotic lysis, higher = more signal, called active from +8 up or from −8 down
The label depends only on z-score: 1 if it is at least 0.7, -1 if it is smaller.

molecule | category-label
C=CC[C@@H]1C=C[C@H](ON=C[C@@H](NS(=O)(=O)c2ccc(C)cc2)[C@H](C)C=CCC(=O)OC)[C@@H](CO)O1 | 1
CCOC(=O)[C@H](Cc1ccccc1)NC(=O)CCC1CC(OC(=O)NCc2ccc3c(c2)OCO3)CC2(CCCC(COC(=O)NCCCN3CCCC3=O)O2)O1 (some centres undefined) | -1
CCCNC(=O)OC[C@H]1O[C@H](CCON=C2C[C@@H](O)[C@@H](O)[C@@H]3[C@@H]4C(=O)N(CC)C(=O)[C@@H]4CC[C@@H]23)C=C[C@@H]1Oc1ccc(OC)cc1 | 1
CC(C)=CCCC(C)=CCON=C1C[C@@H](O)[C@@H](O)[C@@H]2[C@@H]3C(=O)N([C@@H](C)c4ccccc4)C(=O)[C@@H]3CC[C@@H]12 | -1
CON=C1c2cc(OC)ccc2O[C@H](c2cccc(OC)c2)[C@H]1O | 1
CCN1C(=O)[C@H]2[C@H]3[C@H](O)[C@H](O)CC(=NOCC=C(C)CCC=C(C)C)[C@@H]3CC[C@H]2C1=O | 1
CC(C)=NOC[C@@H](O)[C@H]1O[C@@H]2OC(C)(C)O[C@@H]2[C@H]1O | -1
CC(C)[C@H](NC(=O)OC(C)(C)C)[C@@H](O)CC(=O)C(C)(C)C | -1
CC(=O)OC[C@H]1O[C@H](CC=NOC[C@@H](O)[C@H]2O[C@@H]3OC(C)(C)O[C@@H]3[C@H]2O)C=C[C@@H]1OC(C)=O | -1
O=C1[C@H]2[C@H]3[C@H](O)[C@H](O)CC(=NOC[C@@H](O)COCc4ccco4)[C@@H]3CC[C@H]2C(=O)N1C1CCCCC1 | 1
CC(=O)OC[C@H]1O[C@@H](ON=C(C)CCC(=O)OC[C@H]2O[C@H](C#Cc3ccccc3)C=C[C@@H]2Oc2ccc(C)cc2)[C@H](OC(C)=O)[C@@H](OC(C)=O)[C@@H]1OC(C)=O | 1
COC(=O)[C@H](C)NC(=O)CCC1CC(OC(=O)NCCc2ccc(F)cc2)CC2(CCCC(COC(=O)NCC3CCCCC3)O2)O1 (some centres undefined) | 1
O=C1[C@H]2[C@H]3[C@H](O)[C@H](O)CC(=NOCc4ccccc4)[C@@H]3CC[C@H]2C(=O)N1c1cccc(Oc2ccccc2)c1 | 1
CCOC(=O)CCN1C(=O)[C@H]2[C@H]3[C@H](O)[C@H](O)CC(=NOCC(C)C)[C@@H]3CC[C@H]2C1=O | 1

###

- protocol-details: osmotic lysis modulators in infected erythrocytes, primary screen, PSAC antagonist project, cell-based, P. falciparum Indochina, OD700, 3 h (AID 1156)
- conditions-used: higher = more signal, called active from +8 up or from −8 down

structure | z-score
CSCC[C@@H]1NC(=O)CC=C[C@@H](C)COC(=O)[C@H](C)COC1=O | -0.92
C#CCCCON=C1[C@H]2CCn3c(=O)n(Cc4cc5c(cc4Cl)OCO5)c(=O)n3[C@H]2[C@H](O)[C@@H]2O[C@H]12 | 0.579
CC(=O)OC[C@H]1O[C@H](CC=NOCC[C@@H]2C=C[C@H](OC(C)=O)[C@@H](COC(C)=O)O2)C=C[C@@H]1OC(C)=O | 0.286
C#CCCCON=C1C[C@@H](O)[C@@H](O)[C@@H]2[C@@H]3C(=O)N(C[C@@H]4CCCO4)C(=O)[C@@H]3CC[C@@H]12 | -1.08
O=C1[C@H]2CCn3c(=O)n(Cc4cc5c(cc4Cl)OCO5)c(=O)n3[C@H]2[C@H](O)[C@@H]2O[C@H]12 | -0.277
O=C1C2=CC[C@H]3C(=O)N(C4CCCCC4)C(=O)[C@H]3[C@H]2[C@H](O)[C@@H]2O[C@H]12 | 0.215
CCN1C(=O)[C@H]2[C@H]3[C@H](O)[C@H](O)CC(=NOCC=C(C)CCC=C(C)C)[C@@H]3CC[C@H]2C1=O | 0.0742
